Hello, the source for this data is PubChem BioAssay (NCI), in case you need it.

system: HCT-15 colon; test: NCI tumour cell line growth inhibition, 48 h
Listed here: items and their measured TGI.

Cc1ccc(NC(=O)CC(=O)n2nc(-c3ccccc3)c(N=Nc3ccccc3C(=O)O)c2-c2ccccc2)cc1 :: > 100 µM
O=S(=O)(CC(O)C(Cl)(Cl)Cl)NNc1ccccc1 (configuration not stated) :: > 100 µM
O=C1CC(NCCCNC2CC(=O)c3c(Br)sc(Br)c32)c2c(Br)sc(Br)c21 (configuration not stated) :: 3.56 µM

Param item = O=C(Cc1nc2ccc(C(=O)c3ccccc3)cc2[nH]c1=O)C(=O)Nc1ccc(C(F)(F)F)cc1[N+](=O)[O-] ; retrieve measured TGI.
> 100 µM

Next up: COC(=N)c1ncn(Cc2ccccc2)c1N
> 100 µM

Try this molecule too: N#Cc1nc(-c2ccccc2O)oc1N
> 100 µM

Then this molecule: Nc1nc2c(c(=O)[nH]1)N=C(COP(=O)(O)OP(=O)(O)O)CN2
> 100 µM

Try this molecule too: N=c1oc2ccc([N+](=O)[O-])cc2cc1C(=O)Nc1ccccn1
> 100 µM

Now try CC1(C)C(=O)CCC(=O)C(C)(C)C2=CC=C(O2)C(C)(C)C(=O)CCC(=O)C(C)(C)C2=CC=C1O2 .
> 100 µM

Moving on to NC(Cn1ccc(=O)c(O)c1)C(=O)O (configuration not stated)
> 100 µM

What do we get for CCOP(=O)(CCN1CCN(CCCCCOc2cc3c(cc2OC)C(=O)N2CCC[C@H]2C=N3)CC1)OCC ?
> 100 µM

* * *

system: SF-539 CNS; test: NCI tumour cell line growth inhibition, 48 h; in the data active = GI50 below about 0.43 µM; inactive = the rest
Can you answer with just one of these options? active, inactive

Solved entries:
Nc1cccc2c1CN(C1CCC(=O)NC1=O)C2=O (stereo not given) :: inactive
CC[C@@]1(O)C(=O)OCc2c1cc1n(c2=O)Cc2cc3c(Cl)c4c(cc3nc2-1)OCO4 :: active
COc1cccc2c1C(=O)c1c(O)c3c(c(O)c1C2=O)C[C@@](O)(C(C)=O)C[C@@H]3OC1CC(N(C)C)C(O)C(C)O1 (stereo not given in full) :: active
Cc1ccc(NC(C(=O)c2ccccc2)c2ccccc2)cc1 (stereo not given) :: inactive
O=C1NC(=O)C(N2CCc3ccccc32)=C1c1ccc(Cl)cc1 :: inactive

For O=c1c(-c2ccc3c(c2)OCO3)coc2c(CO)c(O)ccc12 , which call appears in the assay record?
inactive

Ok, now CCOP(=O)(CCN1CCN(CCCCCOc2cc3c(cc2OC)C(=O)N2CCC[C@H]2C=N3)CC1)OCC
inactive

Try Nc1ncnc2c1nc(N)n2C1OC(CO)C(O)C1O (stereo not given) next.
inactive

Item: Oc1[nH]c2ccc(Cl)cc2c1/C=c1/ccc2c(c1)N=C(c1ccc(C(F)(F)F)cc1)N=2
inactive

Next up: O=C1c2ccccc2-c2c1c1c(O)cccc1n2CCCc1ccccc1
inactive

* * *

test system: CAKI-1 renal; test: NCI tumour cell line growth inhibition, 48 h
Parameter: TGI (µM)
Your answer is read as µM, so omit the unit and give the number.

Cc1ccc(C2NC(=S)N3C(c4ccc(C)cc4)NC(=S)N23)cc1 (stereo not given) :: 7.01
O=C(CCCCCNC1=CC(=O)c2ccccc2C1=O)NCCC[Te]c1ccccc1 :: 3.93

Missing value: TGI, CAKI-1 renal, entry Oc1[nH]c2ccc(Cl)cc2c1/C=c1/ccc2c(c1)N=C(c1ccc(C(F)(F)F)cc1)N=2 . Fill in?
9.55

What about O=C(NCCSSCCNC(=O)/C(Cc1ccc(O)c(Br)c1)=N/O)/C(Cc1ccc(O)c(Br)c1)=N/O ?
5.32

Further, for CC[C@@]1(OC(=O)C(N)CCC(=O)O)C(=O)OCc2c1cc1n(c2=O)Cc2cc3ccccc3nc2-1 (stereo not given in full) ?
0.235

Same again, this time with S=C1NCCN1C(=S)NC1CCCCC1
74.5

Entry to check: Cc1cc2oc(=O)c(Cl)c(Cl)c2c(C)c1Cl
15.7

Also need CCCCCCCCn1ccc2cc(NC(=O)Cn3cc(CN4CCC(C)CC4)nn3)ccc21 , thanks.
3.15

Likewise for COc1ccc(C(=O)/C=C/c2ccc(OCC#N)cc2)cc1OC ?
37.5
